target_or_system: NAD(P)H dehydrogenase [quinone] 1 (Homo sapiens) (UniProt P15559)
Sequence (P15559 whole entry): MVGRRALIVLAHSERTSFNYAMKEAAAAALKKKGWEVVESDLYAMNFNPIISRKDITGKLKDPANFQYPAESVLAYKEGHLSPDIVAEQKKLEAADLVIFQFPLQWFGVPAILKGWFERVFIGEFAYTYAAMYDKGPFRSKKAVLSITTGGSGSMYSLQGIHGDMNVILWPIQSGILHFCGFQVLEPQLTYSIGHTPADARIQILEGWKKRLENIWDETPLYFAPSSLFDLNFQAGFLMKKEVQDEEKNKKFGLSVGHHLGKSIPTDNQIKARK
method: Activity of human recombinant NQO1 assessed as reduction of cytochrome c per mg of protein by spectrophotometric assay
readout: Activity (µmol/min/mg)

compound	unit_string	Activity
CCC(C)NC(=O)c1cc2c([nH]c3ccccc32)c(-c2ccc3c(n2)C(=O)C(NC(C)=O)=CC3=O)n1 (stereo not given)	µmol/min/mg	4.9

[A] COC(=O)c1cc2c([nH]c3ccccc32)c(-c2ccc3c(n2)C(=O)C(NC(=O)c2ccco2)=CC3=O)n1
[B] NC1=CC(=O)c2ccc(-c3nc(C(=O)OCCO)cc4c3[nH]c3ccccc34)nc2C1=O
[C] CCCCNC(=O)c1cc2c([nH]c3ccccc32)c(-c2ccc3c(n2)C(=O)C(NC(C)=O)=CC3=O)n1
[D] CCCC(=O)NC1=CC(=O)c2ccc(-c3nc(C(=O)OCCC(C)C)cc4c3[nH]c3ccccc34)nc2C1=O
Challenge: Please give the order of these compounds when sorted by Activity, largest value leading. Please, when replying, give the labels in the order that was requested.
Response given: C, B, A, D

====

The compounds listed here are annotated with their pIC50.
Tested on: BE-NQ
method: Cytotoxicity against human BE-NQ cells expressing human NQO1 after 4 to 5 days by MTT assay
Format: functional, cell-based
# pIC50: negative log10 of molar concentration; output just the value

item_smiles	measurement
NC1=CC(=O)c2ccc(-c3nc(C(=O)OCCO)cc4c3[nH]c3ccccc34)nc2C1=O	6.30

Record "COC(=O)c1cc2c([nH]c3ccccc32)c(-c2ccc3c(n2)C(=O)C(NC(=O)c2ccco2)=CC3=O)n1" has BE-NQ pIC50 equal to 4.33

Record "CCCCNC(=O)c1cc2c([nH]c3ccccc32)c(-c2ccc3c(n2)C(=O)C(NC(C)=O)=CC3=O)n1" has BE-NQ pIC50 equal to 5.77

Cited source for all entries: ChEMBL document CHEMBL1150337
